microsomal CLint at 1 μM for assorted molecules
# ASSAY_METHOD_TEXT: in vitro
# CONDITION_PARAMETERS: Han-Wistar, rat, microsomes, pH 7.4, CL int,u, in-house combined cofactors, Pool 1
Respond with the figure and its unit, in that order.

Some entries whose results are on file:
> print(dat)
                                   molecule     experimental.endpoint  observed.measurement
1   O=c1ccc2ccc(O)cc2o1 [7‐Hydroxycoumarin]  microsomal CLint at 1 μM         196 µL/min/mg
2  CC(C)Oc1ccc2c(=O)c(-c3ccccc3)coc2c1 [Ipriflavone]  microsomal CLint at 1 μM         495 µL/min/mg
3  CCCCC1=NC2(CCCC2)C(=O)N1Cc1ccc(-c2ccccc2-c2nnn[nH]2)cc1 [Irbesartan]  microsomal CLint at 1 μM        31.9 µL/min/mg
4  CCCc1nn(C)c2c(=O)[nH]c(-c3cc(S(=O)(=O)N4CCN(C)CC4)ccc3OCC)nc12 [Sildenafil]  microsomal CLint at 1 μM        23.8 µL/min/mg
5  CCCCc1nc(Cl)c(CO)n1Cc1ccc(-c2ccccc2-c2nn[nH]n2)cc1 [Losartan]  microsomal CLint at 1 μM        34.8 µL/min/mg
6  COc1ccc2c(c1)c(CC(=O)O)c(C)n2C(=O)c1ccc(Cl)cc1 [Indomethacin]  microsomal CLint at 1 μM        48.9 µL/min/mg
7  CN1CCN(CC(=O)N2c3ccccc3C(=O)Nc3cccnc32)CC1 [Pirenzepine]  microsomal CLint at 1 μM         3.9 µL/min/mg

Now consider the entry below.
[in] Specify reported microsomal CLint at 1 μM for the molecule shown: COc1ccc([C@@H]2Sc3ccccc3N(CCN(C)C)C(=O)[C@@H]2OC(C)=O)cc1 [Diltiazem]
[out] 21.8 µL/min/mg

###

# ASSAY_METHOD_TEXT: Nonspecific protein binding in rat intestinal microsomes (96-well micro-equilibrium dialysis)
# CONDITION_PARAMETERS: rat, 4 h, 1 μM, pH 7.4
Listed here are molecules together with their documented fuinc.
A bare number is all that is needed in reply.

> print(dat)
                           molecular.string  observed.measurement
1  CCCCC1=NC2(CCCC2)C(=O)N1Cc1ccc(-c2ccccc2-c2nnn[nH]2)cc1                  0.79
2            O=C(O)Cc1ccccc1Nc1c(Cl)cccc1Cl                  0.98
3  COc1ccc2c(c1)c(CC(=O)O)c(C)n2C(=O)c1ccc(Cl)cc1                  0.88

Let us move to another entry and its fuinc.
[in] Identify fuinc associated with the molecule COc1ccc([C@@H]2Sc3ccccc3N(CCN(C)C)C(=O)[C@@H]2OC(C)=O)cc1
[out] 0.85
